Test: SK-BR-3 cell growth inhibitors, pilot screen, 24 h, human (AID 572);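 note: compound exposure lasted between 18 and 24 h rather than exactly 24 h; 100% = carrier-treated control wells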
Settings: SK-BR-3 viability, CellTiter-Glo luminescence, at 10 µM, hits give low values
OBSERVATION_TYPE: viability (%)
# value in %; strip the unit string

Solved entries:
{"COMPOUND": "COc1ccc([C@@H]2Sc3ccccc3N(CCN(C)C)C(=O)[C@@H]2OC(C)=O)cc1", "viability (%)": 76}
{"COMPOUND": "CCCSc1nc2c(c(=O)[nH]c(=O)n2C)n1CCc1ccccc1", "viability (%)": 89.5}
{"COMPOUND": "O=C1C2CC=CCC2C(=O)N1c1ccc(Cc2ccncc2)cc1 (centres undefined)", "viability (%)": 88}
{"COMPOUND": "COc1cc(OC)cc(C(=O)NCCN2CCOCC2)c1", "viability (%)": 105}
{"COMPOUND": "Cc1ccc(S(=O)(=O)N(CC(=O)N2CCOCC2)CC(=O)N2CCOCC2)cc1", "viability (%)": 104}
{"COMPOUND": "O=S(=O)(Nc1ccn(-c2ccccc2)n1)c1ccc(Br)cc1", "viability (%)": 89}
{"COMPOUND": "COC(=O)C(C)Sc1nc2c(c(=O)n(C)c(=O)n2C)n1Cc1cccc(C)c1 (centres undefined)", "viability (%)": 97.5}
{"COMPOUND": "Cc1nc2ccc(NC(=O)N3CCSCC3)cc2s1", "viability (%)": 89.5}

Task: So what's the measured viability for this one? CCOc1ccccc1NS(=O)(=O)c1c(C)noc1C
Output: 97.5

Task: Any idea what viability was measured for O=C1N[C@@H](Cc2cnc[nH]2)C(=O)N2CCC[C@@H]12 ?
Output: 113

Task: # query: viability of entry COc1cc(NC(=O)C2CC(c3cccc(OC)c3OC)=NO2)cc(OC)c1OC (centres undefined)
Output: 83

Task: Given O=C(CCCC(=O)N(CC(=O)NC1CCCCC1)Cc1ccc2c(c1)OCO2)Nc1ccccn1 , state its recorded viability.
Output: 102

Task: Form field: reported viability of C[C@]12CC[C@@H]3c4ccc(OS(=O)(=O)O)cc4CC[C@H]3[C@@H]1CCC2=O
Output: 87

Task: Given the entry NC(=O)C(Cc1ccccc1)NS(=O)(=O)c1ccc(N2CCCC2=O)cc1 (centres undefined) , report its measured viability.
Output: 90.5

Task: Param item = Cc1cc(C(=O)NCc2cccnc2)n(-c2ccccc2)n1 ; retrieve measured viability.
Output: 93.5

Task: Given the entry CCC1C(=O)N=C(SCC(=O)Nc2cccc3ccccc23)NC1=O (centres undefined) , report its measured viability.
Output: 112

Task: Quick check: viability of CCOC(=O)C1CCN(c2c(N3CCCCCC3)c(=O)c2=O)CC1 ?
Output: 97
